Assay: Cytotoxicity against MDBK cells after 48 to 96 hrs by MTT assay
Assay type: cell-based, Bos taurus
Conditions: cattle, mdbk

compound: O=c1cccc2n1CC1CC2CN(/N=N/c2ccc(Cl)cc2)C1 (stereo not drawn)
CC50: 97 µM

compound: Cc1c(/N=N/c2ccccc2)ccc(NC[C@@H]2CCCN3CCCC[C@H]23)c1C
CC50: 48 µM

compound: Fc1ccc(F)c(/N=N/Nc2cc(F)ccc2F)c1
CC50: > 100 µM

compound: Brc1ccc(/N=N/N2CCCC2)cc1
CC50: > 100 µM

compound: CN(C)CCCN(/N=N/c1c(F)cccc1F)c1ccccc1
CC50: 45 µM

compound: Clc1ccc(/N=N/N2CCCC2)cc1
CC50: > 100 µM

compound: O=[N+]([O-])c1cccc(/N=N/Nc2ccccc2)c1
CC50: 94 µM

compound: O=c1cccc2n1CC1CC2CN(/N=N/c2cccc([N+](=O)[O-])c2)C1 (stereo not drawn)
CC50: > 100 µM

compound: O=[N+]([O-])c1cccc(/N=N/N2CCCC2)c1
CC50: > 100 µM

compound: Cc1ccc(/N=N/N(CCCN(C)C)c2ccccc2)cc1
CC50: > 100 µM

compound: c1ccc(/N=N/N2CCN(c3ncccn3)CC2)cc1
CC50: > 100 µM

compound: FC(F)(F)c1cccc(N(C[C@@H]2CCCN3CCCC[C@H]23)/N=N/c2ccccc2)c1
CC50: 22 µM

compound: Clc1cccc(/N=N/N2CCCCC2)c1
CC50: > 100 µM

compound: CN(C)CCCN(/N=N/c1ccccc1)c1ccccc1
CC50: 95 µM

compound: FC(F)(F)c1cccc(/N=N/N2CCCC2)c1
CC50: > 100 µM

compound: Fc1ccc(F)c(/N=N/Nc2cccc(C(F)(F)F)c2)c1
CC50: > 100 µM

compound: c1ccc(/N=N/N2CCN(c3ccccc3)CC2)cc1
CC50: > 100 µM

compound: CN(/N=N/c1cccc([N+](=O)[O-])c1)c1ccccc1
CC50: 82 µM

====

Tested on: MT4
Experiment: Cytotoxicity against human MT4 cells after 96 hrs by MTT assay
Type: cell-based
Conditions: mt4, 96 h
readout-name: CC50

structure: Clc1ccc(/N=N/N2CCCCC2)cc1
target-of-assay: MT4
reported: > 100 µM
//
structure: Fc1ccc(F)c(/N=N/Nc2cccc(C(F)(F)F)c2)c1
target-of-assay: MT4
reported: > 100 µM
//
structure: O=[N+]([O-])c1cccc(/N=N/Nc2cccc([N+](=O)[O-])c2)c1
target-of-assay: MT4
reported: > 100 µM
//
structure: Clc1cccc(/N=N/N2CCCC2)c1
target-of-assay: MT4
reported: > 100 µM
//
structure: O=[N+]([O-])c1ccc(/N=N/N2CCCC2)cc1
target-of-assay: MT4
reported: ≥ 100 µM
//
structure: Brc1ccc(/N=N/N2CCCCC2)cc1
target-of-assay: MT4
reported: > 100 µM

====

Test: Cytotoxicity against MDBK cells after 48 to 96 hrs by MTT assay
Assay type: cell-based, Bos taurus
Conditions: cattle, mdbk

compound: CN(C)CCCNc1ccc(/N=N/c2c(F)cccc2F)cc1
CC50: 20 µM
//
compound: c1ccc(/N=N/N2CCCC2)cc1
CC50: > 100 µM
//
compound: c1ccc(/N=N/c2ccc(NC[C@@H]3CCCN4CCCC[C@H]34)c3c2CCCC3)cc1
CC50: > 100 µM
//
compound: c1ccc(N=NNc2ccccc2)cc1
CC50: > 100 µM
//
compound: COc1c(C)c2c(c(O)c1C/C=C(\C)CCC(=O)O)C(=O)OC2 [MYCOPHENOLIC ACID]
CC50: 42 µM
//
compound: CN(C)CCCN(/N=N/c1cccc([N+](=O)[O-])c1)c1ccccc1
CC50: 37 µM
//
compound: Fc1ccc(F)c(/N=N/c2ccc(NC[C@@H]3CCCN4CCCC[C@H]34)c3c2CCCC3)c1
CC50: 64 µM
//
compound: CN(C)CCCN(/N=N/c1cc(F)ccc1F)c1cccc(C(F)(F)F)c1
CC50: > 100 µM
//
compound: Cc1c(/N=N/c2cccc(C(F)(F)F)c2)ccc(NC[C@@H]2CCCN3CCCC[C@H]23)c1C
CC50: 52 µM
//
compound: CN1CCN(/N=N/c2ccccc2)CC1
CC50: > 100 µM
//
compound: O=[N+]([O-])c1cccc(/N=N/N2CCCCC2)c1
CC50: > 100 µM
//
compound: Fc1ccc(F)c(/N=N/Nc2ccccc2)c1
CC50: > 100 µM
//
compound: O=c1cnn([C@@H]2O[C@H](CO)[C@@H](O)[C@H]2O)c(=O)[nH]1 [6-AZAURIDINE]
CC50: > 100 µM
//
compound: CN(C)CCCN(/N=N/c1cc(F)ccc1F)c1ccccc1
CC50: 25 µM
//
compound: Fc1ccc(/N=N/c2ccc(NC[C@@H]3CCCN4CCCC[C@H]34)c3c2CCCC3)c(F)c1
CC50: 11 µM
//
compound: Fc1ccc(F)c(/N=N/N2CCCC2)c1
CC50: > 100 µM
//
compound: O=[N+]([O-])c1ccc(/N=N/N2CCCC2)cc1
CC50: > 100 µM
//
compound: FC(F)(F)c1cccc(/N=N/c2ccc(NC[C@@H]3CCCN4CCCC[C@H]34)c3c2CCCC3)c1
CC50: 30 µM
//
compound: COc1ccc(/N=N/N2CCCC2)cc1
CC50: 60 µM
//
compound: CN(C)CCCN(/N=N/c1ccc([N+](=O)[O-])cc1)c1ccccc1
CC50: 39 µM
//
compound: CN1CCN(/N=N/c2cc(F)ccc2F)CC1
CC50: > 100 µM
